assay_overview: NCI Yeast Anticancer Drug Screen. Data for the sgs1 mgt1 strain (AID 161);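 further: 0% = growth of cultures given vehicle only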
measurement_parameters: S. cerevisiae sgs1 mgt1 strain, at 50.0 µM, hits give high values
The panel holds about 79,000 compounds, 15% with a hit somewhere; the sample as a whole holds those more often.
measured_parameter: growth inhibition (%)
Answers are plain numbers, in %.

Below: 8 compounds and their reported growth inhibition.
| compound | measured_parameter | units_label | val |
| --- | --- | --- | --- |
| c1ccc(Oc2ccc(-c3ccccc3)cc2)cc1 | growth inhibition | % | 1.8 |
| COc1ccc(C(c2cc3c(cc2O)OCO3)n2ccnc2)cc1 (stereo not drawn) | growth inhibition | % | 12.3 |
| Nc1ncnc2nc[nH]c12 | growth inhibition | % | 13.9 |
| COc1cc2cnc(-c3ccncc3)c(N)c2cc1OC | growth inhibition | % | -11.6 |
| O=C(OCC1OC(OC(=O)c2ccccc2)C(O)C1OC(=O)c1ccccc1)c1ccccc1 (stereo not drawn) | growth inhibition | % | 19.3 |
| COc1cccc2c1C(=O)c1c(C)c(C)c(C)c(C)c1-2 | growth inhibition | % | 3.05 |
| COc1ccc2nccc(SCC(=O)O)c2c1 | growth inhibition | % | -29.6 |
| COc1ccc(Nc2nc(C#N)c(N)s2)cc1 | growth inhibition | % | -0.15 |

Kindly give each listed record's growth inhibition.
1. Cc1ccc(S(=O)(=O)N/N=C/C(C)(C)C)cc1
2. Cn1c(=S)sc2ccc(S(=O)(=O)C(F)F)cc21
3. O=S1(=O)C=C(N2CCCCC2)c2ccccc21
4. COc1cccc2c1OC(=O)NC2O (stereo not drawn)
5. Cc1c2ccccc2nc(CS(=O)(=O)c2ccccc2)[n+]1[O-]

Result:
8.95
4.7
-4
-17.9
-4.95

----------
assay_overview: NCI Yeast Anticancer Drug Screen. Data for the mec2-1 strain (AID 157)
measurement_parameters: S. cerevisiae mec2-1 strain, at 50.0 µM, hits give high values
The panel holds about 79,000 compounds, 15% with a hit somewhere; the sample as a whole holds those more often.
Record form. Attribute: growth inhibition. Fill in for each entry.
Numbers only, in %.

Kindly give each listed record's growth inhibition.
1. Oc1cc(O)c(Cl)cc1Cl
2. CCCCN1CCNC1=S
3. COC1CCC2C(C1)C(C1CCCCC1)C1CCCCC1C2C1CCCCC1 (stereo unspecified)
4. C[N+](C)(C)CCc1ccc2ccccc2c1
5. Nc1ncc([N+](=O)[O-])c(N)n1
6. CCCCOC(=O)c1ccccc1

Result:
1: -4.25; 2: -13.2; 3: 8.05; 4: 11.8; 5: 5.45; 6: 13.7

Kindly give each listed record's growth inhibition.
1. O=C(NC12CC3CC(CC(C3)C1)C2)C(=O)c1c[nH]c2ccccc12
2. CC(C)(C)OC(=O)N1CC(C)(C)N2C(=O)C3(CCCO3)C12 (stereo unspecified)
3. CSc1nnc(SC)s1
4. CC(C)N(C(=O)C12C3C4C5(C#N)C3C1(C#N)C5C42C#N)C(C)C (stereo unspecified)
5. CCCNC(=S)/N=C/c1c(O)cc(C)oc1=O

Result:
1. 14.2
2. -9.85
3. -22.6
4. -9.9
5. -65.6

Kindly give each listed record's growth inhibition.
1. CCN(CC)Cc1cc(N)cc(N=Nc2ccc3c(c2)c2ccccc2n3CC)c1O
2. CCCCCCP(=O)(CCCC)CCCC
3. COc1ccc(C(C)=C(C#N)C#N)cc1
4. C/C=C/C=C\C(=O)C1c2cccc(O)c2C(=O)c2c(O)cc(C)cc21 (stereo unspecified)
5. O=c1[nH]ncn2nc3ccccc3c12
6. CCCCCCCCCCCCCC(=O)OCCN(C)C
7. NC(=O)CCC(NS(=O)(=O)c1ccc(NC(=O)c2ccccc2)cc1)C(=O)O (stereo unspecified)

Result:
0
11.9
2.7
20.9
10.2
-2.6
-4.1
